Exercise: for every item that follows, state its recorded Longevity @ 23° C..
Test: Release rate and longevity of high density polyethylene sheets as a function of thickness and temperature (Example 2)
Format: physicochemical
Conditions: sheet thickness 120 mil; 23° C.; 10 wt % pesticide, 10 wt % carrier, 80 wt % HDPE
Description: Controlled release devices in the form of sheets are made having 10% wt % pesticide, 10 wt % carrier and 80 wt % high density polyethylene (MA 778000).
// units = years; emit number, no label

Q. Return Longevity @ 23° C. for the following compound: CC1(C)C(C=C(Cl)Cl)C1C(=O)OCc1cccc(Oc2ccccc2)c1 (centres unmarked)
A. 17

Q. Return the recorded Longevity @ 23° C. value; entry: `Oc1ccc(Cl)cc1Cc1cc(Cl)ccc1O`
A. 3.3

Q. Using the record for Cc1c(F)c(F)c(COC(=O)[C@@H]2[C@H](/C=C(\Cl)C(F)(F)F)C2(C)C)c(F)c1F (racemic) , state its measured Longevity @ 23° C..
A. 18.2

Q. Hello, please tell me recorded Longevity @ 23° C. for this one: `c1ccc(-c2ccccc2)cc1`
A. 5.1

Q. Output measured Longevity @ 23° C. for this item: `CCOP(=S)(OCC)Oc1cc(C)nc(C(C)C)n1`
A. 2.3

###

Record form. Attribute: Release Rate. Fill in for each entry.
test: Release rates of pesticide/polymer combinations, one inch squares cut from 1/8 inch sheets (Example 1); assay type: physicochemical; details: polymer polyurethane 3100, injection molded 1/8 inch sheet, 10% pesticide, 3 or 7% carbon black
Your answer is read as μg/cm2/day, so omit the unit and give the number.

Q. Report Release Rate, nothing else, for this molecule: CC1(C)C(C=C(Cl)Cl)C1C(=O)OCc1cccc(Oc2ccccc2)c1 (stereo not shown)
A. 1.4

Q. Please indicate Release Rate recorded for Cc1c(F)c(F)c(COC(=O)[C@@H]2[C@H](/C=C(\Cl)C(F)(F)F)C2(C)C)c(F)c1F (racemic)
A. 6.4

Q. Check the records and state Release Rate for `CC1(C)[C@H](C(=O)O[C@H](C#N)c2cccc(Oc3ccccc3)c2)[C@@H]1/C=C(\Cl)C(F)(F)F`
A. 0.7

Q. Look up Release Rate of CC1(C)C(C=C(Cl)Cl)C1C(=O)OC(C#N)c1cccc(Oc2ccccc2)c1 (stereo not shown) and report it.
A. 0.4

###

assay: Release rates of pesticide/polymer combinations, one inch squares cut from 1/8 inch sheets (Example 1); type: physicochemical; details: polymer Polyethylene MA78000, injection molded 1/8 inch sheet, 10% pesticide, 3 or 7% carbon black
Give measured Release Rate for each item. Keep answers brief.
Answer in μg/cm2/day, number only, no unit symbol.

Q. State its Release Rate for this molecule: Cc1c(F)c(F)c(COC(=O)[C@@H]2[C@H](/C=C(\Cl)C(F)(F)F)C2(C)C)c(F)c1F (racemic) [Tefluthrin]
A. 27.0

Q. Return Release Rate for the following molecule: CC1(C)C(C=C(Cl)Cl)C1C(=O)OCc1cccc(Oc2ccccc2)c1 (centres unmarked) [Permethrin]
A. 4.0

Q. Report Release Rate for CC1(C)C(C=C(Cl)Cl)C1C(=O)OC(C#N)c1cccc(Oc2ccccc2)c1 (centres unmarked) [Cypermethrin]
A. 4.6

Q. Given the molecule Oc1ccc(Cl)cc1Cc1cc(Cl)ccc1O [Dichlorophen] , write its reported Release Rate.
A. 6.2

Q. Provide Release Rate value for the following molecule: CC1(C)[C@H](C(=O)O[C@H](C#N)c2cccc(Oc3ccccc3)c2)[C@@H]1/C=C(\Cl)C(F)(F)F [Lambdacyhalothrin]
A. 5.2

###

assay: Release rate and longevity of high density polyethylene sheets as a function of thickness and temperature (Example 2); format: physicochemical; settings: sheet thickness 60 mil; 35° C.; 10 wt % pesticide, 10 wt % carrier, 80 wt % HDPE
Label class 1 when Longevity @ 35° C. >= 1 years; otherwise class 0.

Q. Please check the record CC1(C)C(C=C(Cl)Cl)C1C(=O)OCc1cccc(Oc2ccccc2)c1 (centres unmarked) and state if its Longevity @ 35° C. is at or above 1 years.
A. class 1

Q. Identify whether the reported Longevity @ 35° C. of the following compound is 1 years or greater: Cc1c(F)c(F)c(COC(=O)[C@@H]2[C@H](/C=C(\Cl)C(F)(F)F)C2(C)C)c(F)c1F (racemic)
A. class 1

Q. Given `Oc1ccc(Cl)cc1Cc1cc(Cl)ccc1O` , state whether its Longevity @ 35° C. is at least 1 years.
A. class 1

Q. Could you tell me if the measured Longevity @ 35° C. of `c1ccc(-c2ccccc2)cc1` reaches 1 years or more?
A. class 1

Q. Is reported Longevity @ 35° C. greater than or equal to 1 years here: `CCOP(=S)(OCC)Oc1cc(C)nc(C(C)C)n1`
A. class 0

###

assay: Release rate and longevity of high density polyethylene sheets as a function of thickness and temperature (Example 2); assay type: physicochemical; conditions: sheet thickness 240 mil; 23° C.; 10 wt % pesticide, 10 wt % carrier, 80 wt % HDPE
REPORTED ENDPOINT: Longevity @ 23° C. (years)
Number only, in years; omit the unit.

Q. Report measured Longevity @ 23° C.; entry is Cc1c(F)c(F)c(COC(=O)[C@@H]2[C@H](/C=C(\Cl)C(F)(F)F)C2(C)C)c(F)c1F (racemic) [Tefluthrin]
A. 39

Q. Name the recorded Longevity @ 23° C. of the molecule listed here: c1ccc(-c2ccccc2)cc1 [Biphenyl]
A. 11.2

Q. Tell me Longevity @ 23° C. reported for CC1(C)C(C=C(Cl)Cl)C1C(=O)OCc1cccc(Oc2ccccc2)c1 (centres unmarked) [Permethrin]
A. 35

Q. Check the records and state Longevity @ 23° C. for Oc1ccc(Cl)cc1Cc1cc(Cl)ccc1O [Dichlorophen]
A. 6.8

Q. Look up and report measured Longevity @ 23° C. for this entry: CCOP(=S)(OCC)Oc1cc(C)nc(C(C)C)n1 [Diazinon]
A. 4.8

###

test: Release rate and longevity of pellet (Example 4); assay type: physicochemical; conditions: pellet about 100 g, about 150 cm^2; 70 wt % HDPE, 20 wt % pesticide, 10 wt % carrier; 23° C.
REPORTED ENDPOINT: Longevity @ 23° C. (years)
Write the answer as a number in years, unit excluded.

Q. Hello, please tell me recorded Longevity @ 23° C. for this one: `Oc1ccc(Cl)cc1Cc1cc(Cl)ccc1O`
A. 33

Q. Give the measured Longevity @ 23° C. for `CCOP(=S)(OCC)Oc1cc(C)nc(C(C)C)n1`
A. 8.1

Q. Tell me its Longevity @ 23° C. given Cc1c(F)c(F)c(COC(=O)[C@@H]2[C@H](/C=C(\Cl)C(F)(F)F)C2(C)C)c(F)c1F (racemic) as the entry.
A. 33

Q. Read the entry CC1(C)C(C=C(Cl)Cl)C1C(=O)OCc1cccc(Oc2ccccc2)c1 (centres unmarked) and write its reported Longevity @ 23° C..
A. 30

Q. Check the records and state Longevity @ 23° C. for `c1ccc(-c2ccccc2)cc1`
A. 22

###

assay: Release rate and longevity of encapsulated two-part construction (Example 3); assay type: physicochemical; settings: two-part device about 100 g; inner part 60 wt % pesticide, 40 wt % carrier; outer part HDPE 120 mil; 35° C.
Where Longevity @ 35° C. equals or exceeds 20 years, the correct label is True; where it does not, the label is False.

Q. Does Cc1c(F)c(F)c(COC(=O)[C@@H]2[C@H](/C=C(\Cl)C(F)(F)F)C2(C)C)c(F)c1F (racemic) have a reported Longevity @ 35° C. of at least 20 years?
A. False

Q. Is Longevity @ 35° C. for `CCOP(=S)(OCC)Oc1cc(C)nc(C(C)C)n1` at or above 20 years?
A. True

Q. Can `c1ccc(-c2ccccc2)cc1` be said to have Longevity @ 35° C. at or above 20 years?
A. True

Q. hey, is Longevity @ 35° C. for this one >= 20 years? CC1(C)C(C=C(Cl)Cl)C1C(=O)OCc1cccc(Oc2ccccc2)c1 (centres unmarked)
A. True

Q. Confirm if Longevity @ 35° C. reported for the molecule `Oc1ccc(Cl)cc1Cc1cc(Cl)ccc1O` is 20 years or above.
A. True

###

Record form. Attribute: Release Rate. Fill in for each entry.
assay: Release rates of pesticide/polymer combinations, one inch squares cut from 1/8 inch sheets (Example 1); format: physicochemical; conditions: polymer polyurethane 2200, injection molded 1/8 inch sheet, 10% pesticide, 3 or 7% carbon black
// return numeric value only (unit: μg/cm2/day, not printed)

Q. For the compound CC1(C)C(C=C(Cl)Cl)C1C(=O)OCc1cccc(Oc2ccccc2)c1 (stereo not shown) , report Release Rate.
A. 1.3

Q. Identify Release Rate associated with the compound CC1(C)C(C=C(Cl)Cl)C1C(=O)OC(C#N)c1cccc(Oc2ccccc2)c1 (stereo not shown)
A. 0.7

Q. Fill in Release Rate for record Cc1c(F)c(F)c(COC(=O)[C@@H]2[C@H](/C=C(\Cl)C(F)(F)F)C2(C)C)c(F)c1F (racemic)
A. 25.0

Q. Return Release Rate (reported value) for this compound: `CC1(C)[C@H](C(=O)O[C@H](C#N)c2cccc(Oc3ccccc3)c2)[C@@H]1/C=C(\Cl)C(F)(F)F`
A. 2.0
